Test system: Staphylococcus aureus
PROTOCOL_SUMMARY: The compound was evaluated for activity against strain Micrococcus aureus
Assay type: functional
Parameters: unit not given here
READOUT_LABEL: -Log C
Give only the figure.

Worked examples, 3 compounds total:
Q: # -Log C lookup, item COC1/C=C/OC2(C)Oc3c(C)c(O)c4c(O)c(cc(OCC(=O)N(C)C5CCCCC5)c4c3C2=O)NC(=O)/C(C)=C\C=C\C(C)C(O)C(C)C(O)C(C)C(OC(C)=O)C1C (centres undefined)
Result: 8.15

Q: # -Log C lookup, item COC1/C=C/OC2(C)Oc3c(C)c(O)c4c(O)c(cc(OCC(=O)N5CCOCC5C)c4c3C2=O)NC(=O)/C(C)=C\C=C\C(C)C(O)C(C)C(O)C(C)C(OC(C)=O)C1C (centres undefined)
Result: 7.92

Q: # -Log C lookup, item COC1/C=C/OC2(C)Oc3c(C)c(O)c4c(O)c(cc(OCC(=O)N5CCCCCC5)c4c3C2=O)NC(=O)/C(C)=C\C=C\C(C)C(O)C(C)C(O)C(C)C(OC(C)=O)C1C (centres undefined)
Result: 8.32

In the following, a different compound is considered.
Q: # -Log C lookup, item COC1/C=C/OC2(C)Oc3c(C)c(O)c4c(O)c(cc(OCC(=O)Nc5ccc(Br)cc5)c4c3C2=O)NC(=O)/C(C)=C\C=C\C(C)C(O)C(C)C(O)C(C)C(OC(C)=O)C1C (centres undefined)
Result: 6.48

* * *

# -Log C per entry
Test system: Albifimbria verrucaria
PROTOCOL_SUMMARY: The compound was evaluated for activity against Myrothecium verrucaria
Type: functional
Parameters: unit not given here

Worked examples, 3 compounds total:
Q: # -Log C lookup, item `Oc1c(Cl)cc(F)c2cccnc12`
Result: 2.29

Q: # -Log C lookup, item `Oc1c(I)cc(Br)c2cccnc12`
Result: 2.24

Q: # -Log C lookup, item `Oc1c(F)cc(I)c2cccnc12`
Result: 2.46

In the following, a different compound is considered.
Q: # -Log C lookup, item `Nc1cc(Br)c2cccnc2c1O`
Result: 0.96

* * *

Test system: Enterococcus faecalis
PROTOCOL_SUMMARY: The compound was evaluated for activity against strain Streptococcus faecalis
Assay type: functional
Set-up: unit not given here
READOUT_LABEL: -Log C
Give only the figure.

Q: Requested read-out -Log C, target or system Enterococcus faecalis, entry COC1/C=C/OC2(C)Oc3c(C)c(O)c4c(O)c(cc(OCC(=O)N5CCCCC5)c4c3C2=O)NC(=O)/C(C)=C\C=C\C(C)C(O)C(C)C(O)C(C)C(OC(C)=O)C1C (stereo not drawn)
Result: 6.92

Q: Requested read-out -Log C, target or system Enterococcus faecalis, entry CCCN(C)C(=O)COc1cc2c(O)c3c(O)c(C)c4c(c13)C(=O)C(C)(O/C=C/C(OC)C(C)C(OC(C)=O)C(C)C(O)C(C)C(O)C(C)/C=C/C=C(/C)C(=O)N2)O4 (stereo not drawn)
Result: 7.31

Q: Requested read-out -Log C, target or system Enterococcus faecalis, entry COC1/C=C/OC2(C)Oc3c(C)c(O)c4c(O)c(cc(OCC(=O)N(C)CCC#N)c4c3C2=O)NC(=O)/C(C)=C\C=C\C(C)C(O)C(C)C(O)C(C)C(OC(C)=O)C1C (stereo not drawn)
Result: 6.05

Q: Requested read-out -Log C, target or system Enterococcus faecalis, entry COC1/C=C/OC2(C)Oc3c(C)c(O)c4c(O)c(cc(OCC(=O)N5CCC(C)CC5)c4c3C2=O)NC(=O)/C(C)=C\C=C\C(C)C(O)C(C)C(O)C(C)C(OC(C)=O)C1C (stereo not drawn)
Result: 7.27

Q: Requested read-out -Log C, target or system Enterococcus faecalis, entry COC1/C=C/OC2(C)Oc3c(C)c(O)c4c(O)c(cc(OCC(=O)N(C)C(C)(C)C)c4c3C2=O)NC(=O)/C(C)=C\C=C\C(C)C(O)C(C)C(O)C(C)C(OC(C)=O)C1C (stereo not drawn)
Result: 7.62

Q: Requested read-out -Log C, target or system Enterococcus faecalis, entry CCCCN(CC)C(=O)COc1cc2c(O)c3c(O)c(C)c4c(c13)C(=O)C(C)(O/C=C/C(OC)C(C)C(OC(C)=O)C(C)C(O)C(C)C(O)C(C)/C=C/C=C(/C)C(=O)N2)O4 (stereo not drawn)
Result: 7.62

Q: Requested read-out -Log C, target or system Enterococcus faecalis, entry CCN(C(=O)COc1cc2c(O)c3c(O)c(C)c4c(c13)C(=O)C(C)(O/C=C/C(OC)C(C)C(OC(C)=O)C(C)C(O)C(C)C(O)C(C)/C=C/C=C(/C)C(=O)N2)O4)c1ccccc1 (stereo not drawn)
Result: 7.33

Q: Requested read-out -Log C, target or system Enterococcus faecalis, entry COC1/C=C/OC2(C)Oc3c(C)c(O)c4c(O)c(cc(OCC(=O)Nc5ccc(Br)cc5)c4c3C2=O)NC(=O)/C(C)=C\C=C\C(C)C(O)C(C)C(O)C(C)C(OC(C)=O)C1C (stereo not drawn)
Result: 6.56

Next:
Q: Requested read-out -Log C, target or system Enterococcus faecalis, entry CCNC(=O)COc1cc2c(O)c3c(O)c(C)c4c(c13)C(=O)C(C)(O/C=C/C(OC)C(C)C(OC(C)=O)C(C)C(O)C(C)C(O)C(C)/C=C/C=C(/C)C(=O)N2)O4 (stereo not drawn)
Result: 6.2

Q: Requested read-out -Log C, target or system Enterococcus faecalis, entry COC1/C=C/OC2(C)Oc3c(C)c(O)c4c(O)c(cc(OCC(=O)N5CCCC5)c4c3C2=O)NC(=O)/C(C)=C\C=C\C(C)C(O)C(C)C(O)C(C)C(OC(C)=O)C1C (stereo not drawn)
Result: 6.34

Q: Requested read-out -Log C, target or system Enterococcus faecalis, entry CNC(=O)COc1cc2c(O)c3c(O)c(C)c4c(c13)C(=O)C(C)(O/C=C/C(OC)C(C)C(OC(C)=O)C(C)C(O)C(C)C(O)C(C)/C=C/C=C(/C)C(=O)N2)O4 (stereo not drawn)
Result: 5.89

Q: Requested read-out -Log C, target or system Enterococcus faecalis, entry COC1/C=C/OC2(C)Oc3c(C)c(O)c4c(O)c(cc(OCC(=O)N5CCCCC5C)c4c3C2=O)NC(=O)/C(C)=C\C=C\C(C)C(O)C(C)C(O)C(C)C(OC(C)=O)C1C (stereo not drawn)
Result: 7.45

Q: Requested read-out -Log C, target or system Enterococcus faecalis, entry CCCN(CC)C(=O)COc1cc2c(O)c3c(O)c(C)c4c(c13)C(=O)C(C)(O/C=C/C(OC)C(C)C(OC(C)=O)C(C)C(O)C(C)C(O)C(C)/C=C/C=C(/C)C(=O)N2)O4 (stereo not drawn)
Result: 7.22
